Reference source for all entries: ChEMBL document CHEMBL4229554

TESTED TARGET: Bromodomain-containing protein 4 (Homo sapiens, UniProt O60885)
ASSAY METHOD TEXT: Inhibition of N-terminal His-tagged BRD4 (BD2) (unknown origin) using biotinylated tetra-acetylated histone H4 peptide after 30 mins by alpha-screen assay
Assign pIC50 to each entry below.
Numbers only, as −log10 of the molar value.

Solved entries (count: 2):
Cc1noc(C)c1-c1ccc(=O)n(Cc2ccc(C3CO3)cc2)c1 (stereo unspecified) = 6.80
Cc1noc(C)c1-c1cc(N)c2ncn(Cc3ccccc3)c2c1 = 8.00

Quick batch: pIC50 for everything below.
1. Cc1noc(C)c1-c1ccc(=O)n(Cc2cccc(F)c2)c1
2. Cc1noc(C)c1-c1ccc(=O)n(Cc2ccccc2)c1
3. Cc1noc(C)c1-c1cc(N)c2ncn(Cc3ccc(C4CO4)cc3)c2c1 (stereo unspecified)
4. Cc1noc(C)c1-c1ccc(=O)n(Cc2ccc(C3CO3)c(F)c2)c1 (stereo unspecified)

7.52
7.10
7.30
6.89
